What follows is a collection of IC50 values obtained with Cyclin-dependent kinase 1 (Homo sapiens).
Sequence (P06493 whole entry): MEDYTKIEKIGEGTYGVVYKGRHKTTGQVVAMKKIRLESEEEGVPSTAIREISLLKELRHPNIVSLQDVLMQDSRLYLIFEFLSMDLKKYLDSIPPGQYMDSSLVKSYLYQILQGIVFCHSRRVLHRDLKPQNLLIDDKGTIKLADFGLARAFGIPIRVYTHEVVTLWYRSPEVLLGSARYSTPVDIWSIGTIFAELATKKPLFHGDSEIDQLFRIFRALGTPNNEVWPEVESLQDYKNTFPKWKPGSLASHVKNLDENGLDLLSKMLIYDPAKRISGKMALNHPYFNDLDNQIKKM
Express your answer in µM, writing the number without its unit.

Example cases with answers are listed next.
OCCCNc1cc(-c2ccnc(Nc3cccc(Cl)c3)n2)ccn1 : 0.017
OCCCNc1cncc(-c2cc(Nc3cccc(Cl)c3)ncn2)c1 : 2.4

Task item: Requested read-out: IC50. Entry: `OCCCNc1cnccc1-c1cncc(Nc2cccc(Cl)c2)n1`
Reply: 2.22

* * *

Biological target: Fibroblast growth factor receptor 2 (Homo sapiens, UniProt P21802)
Sequence (P21802 whole entry): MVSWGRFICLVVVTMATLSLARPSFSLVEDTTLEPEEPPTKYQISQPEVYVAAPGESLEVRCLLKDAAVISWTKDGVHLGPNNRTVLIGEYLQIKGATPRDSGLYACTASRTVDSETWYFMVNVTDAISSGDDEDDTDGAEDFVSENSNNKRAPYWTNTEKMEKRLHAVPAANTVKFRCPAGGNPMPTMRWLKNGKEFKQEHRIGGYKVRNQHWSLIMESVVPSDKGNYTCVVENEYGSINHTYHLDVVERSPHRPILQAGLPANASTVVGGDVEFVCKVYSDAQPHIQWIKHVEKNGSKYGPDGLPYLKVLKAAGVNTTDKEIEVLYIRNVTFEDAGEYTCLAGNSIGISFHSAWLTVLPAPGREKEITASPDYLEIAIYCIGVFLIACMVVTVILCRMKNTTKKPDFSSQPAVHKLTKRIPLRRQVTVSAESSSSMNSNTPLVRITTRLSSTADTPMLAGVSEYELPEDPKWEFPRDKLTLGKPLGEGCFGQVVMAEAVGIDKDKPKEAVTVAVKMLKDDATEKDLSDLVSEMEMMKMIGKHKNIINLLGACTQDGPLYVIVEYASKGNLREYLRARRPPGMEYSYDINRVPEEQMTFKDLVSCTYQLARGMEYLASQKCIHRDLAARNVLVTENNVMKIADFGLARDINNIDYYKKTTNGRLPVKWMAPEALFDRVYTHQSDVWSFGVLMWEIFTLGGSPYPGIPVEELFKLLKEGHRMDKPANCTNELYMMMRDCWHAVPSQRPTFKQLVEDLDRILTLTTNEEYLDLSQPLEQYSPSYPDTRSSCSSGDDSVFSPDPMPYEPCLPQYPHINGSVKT
endpoint: IC50 (nM)
Express your answer in nM, writing the number without its unit.

Task item: For the compound shown here, `OCCCNc1cncc(-c2cncc(Nc3cccc(Cl)c3)n2)c1` , give the reported IC50.
Reply: 210
